Target: SCD1 (Homo sapiens, UniProt O00767)
Construct: host or cells: Saccharomyces cerevisiae ole1Δ strain (W303 pdr1Δ pdr3Δ background), plasmid pRS316, TDH3 promoter
Sequence (O00767 1-359): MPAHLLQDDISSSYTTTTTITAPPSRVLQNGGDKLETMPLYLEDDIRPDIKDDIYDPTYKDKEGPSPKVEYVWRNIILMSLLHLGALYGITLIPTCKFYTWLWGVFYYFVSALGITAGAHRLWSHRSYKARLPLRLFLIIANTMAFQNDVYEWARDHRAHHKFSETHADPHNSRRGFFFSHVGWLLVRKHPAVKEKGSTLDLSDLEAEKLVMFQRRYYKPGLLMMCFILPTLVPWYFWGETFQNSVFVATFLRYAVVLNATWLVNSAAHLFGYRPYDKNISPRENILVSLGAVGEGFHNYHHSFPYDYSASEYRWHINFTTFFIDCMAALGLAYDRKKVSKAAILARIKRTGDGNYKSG
Assay: Growth inhibition of yeast (ole1Δ) expressing human SCD1 as the sole desaturase
Assay type: cell-based
Conditions: yeast strain with SCD1 plasmid, OD600 growth read at 40 h; read-out: SCD1 IC50
measuredEndpoint: IC50 (nM)
Numbers only, in nM.

>  <compound>
Cn1cc(-c2nc(N3CCC(Cc4cc(F)cc(F)c4)CC3)no2)ccc1=O [Compound 17]

>  <targetEntity>
SCD1 (Homo sapiens, UniProt O00767)

>  <unitTag>
nM

>  <IC50>
720

$$$$
>  <compound>
Cn1nc(CC(=O)N2CCC(Cc3cccc(Cl)c3)CC2)ccc1=O [Compound 37]

>  <targetEntity>
SCD1 (Homo sapiens, UniProt O00767)

>  <unitTag>
nM

>  <IC50>
12700

$$$$
>  <compound>
Cn1nc(NC(=O)N2CCC(COc3ccccc3Cl)CC2)ccc1=O [Compound 98]

>  <targetEntity>
SCD1 (Homo sapiens, UniProt O00767)

>  <unitTag>
nM

>  <IC50>
5180

$$$$
>  <compound>
Cn1nc(NC(=O)N2CC(Oc3cc(F)cc(F)c3)C2)ccc1=O [Compound 24]

>  <targetEntity>
SCD1 (Homo sapiens, UniProt O00767)

>  <unitTag>
nM

>  <IC50>
1100

$$$$
>  <compound>
Cn1nc(NC(=O)N2CCC(Cc3ccc(Cl)c(F)c3)CC2)ccc1=O [Compound 52]

>  <targetEntity>
SCD1 (Homo sapiens, UniProt O00767)

>  <unitTag>
nM

>  <IC50>
2400

$$$$

# evaluate next
For the compound Cn1nc(NC(=O)N2CCC(Oc3cccc(C(F)(F)F)c3)CC2)ccc1=O [Compound 74] , give its reported IC50.
20

* * *

biological target: SCD1 (Homo sapiens); construct: host or cells: Saccharomyces cerevisiae ole1Δ strain (W303 pdr1Δ pdr3Δ background), plasmid pRS316, TDH3 promoter; assay: Growth inhibition of yeast (ole1Δ) expressing human SCD1 as the sole desaturase; format: cell-based; settings: yeast strain with SCD1 plasmid, OD600 growth read at 40 h; read-out: SCD1 IC50
measuredEndpoint: pIC50
One number for each entry, as −log10 of the molar value.

Guide cases for pIC50, answers given:
>  <structureAsSmiles>
Cn1nc(NC(=O)N2CC(Cc3cccc(Cl)c3)C2)ccc1=O

>  <measuredNumber>
5.59

$$$$
>  <structureAsSmiles>
Cn1nc(NC(=O)N2CCC(Cc3cc(F)c(F)c(C#N)c3)CC2)ccc1=O

>  <measuredNumber>
5.09

$$$$

# evaluate next
For the molecule `Cc1cc(NC(=O)N2CCC(Cc3cc(F)cc(F)c3)CC2)nn(C)c1=O` , give its reported pIC50.
7.30

The values you see were collected from patent US20250034125A1.
